Please go through the items and note down their Ki.
- Subject of test: cloned, human D1 receptor (Homo sapiens)
- Sequence (P21728 whole entry): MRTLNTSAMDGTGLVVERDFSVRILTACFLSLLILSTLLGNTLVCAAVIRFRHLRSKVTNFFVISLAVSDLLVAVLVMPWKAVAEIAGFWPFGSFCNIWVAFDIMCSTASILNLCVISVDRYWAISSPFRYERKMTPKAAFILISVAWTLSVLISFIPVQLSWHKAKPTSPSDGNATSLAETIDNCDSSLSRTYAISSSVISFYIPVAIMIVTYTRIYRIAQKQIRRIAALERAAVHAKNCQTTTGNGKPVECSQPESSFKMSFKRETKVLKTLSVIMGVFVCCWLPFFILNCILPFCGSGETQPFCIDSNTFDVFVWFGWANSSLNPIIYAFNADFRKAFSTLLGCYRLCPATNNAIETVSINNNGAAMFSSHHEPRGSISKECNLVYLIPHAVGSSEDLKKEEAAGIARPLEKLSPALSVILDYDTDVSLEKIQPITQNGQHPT
- Method summary: Radioligand competition binding assay, [3H]SCH23390
- Condition set: D1 dopamine receptor, [3H]SCH23390 0.3 nM, Cheng-Prusoff
One number for each entry, in µM.

>>> test_value("CCOC(=O)C1[C@H]2O[C@@H]3COC(C)(C)O[C@H]3C(=NO)[C@@H]12 (some centres unmarked)")
6.23

Now for the molecule whose Ki we want.
For reference, reported Ki for CCOC(=O)C1[C@@H]2[C@@H](O)[C@@H]3O[C@H](c4ccc(OC)cc4)OC[C@H]3O[C@H]12 (some centres unmarked) stands at 4.74

###

Please go through the items and note down their TOX 300 0.5 h (animals toxic/tested).
- Method summary: Acute toxicity, minimal motor impairment (rotorod), mice
- Assay type: in vivo
- Condition set: mice, 300 mg/kg, 0.5 h, rotorod

Below, each entry is followed by its recorded TOX 300 0.5 h (animals toxic/tested) result.
>>> test_value("CCOC(=O)C1[C@@H]2[C@@H](OS(=O)(=O)N(C)C)[C@@H]3OC(C)(C)OC[C@H]3O[C@H]12 (some centres unmarked)")
"1/4"
>>> test_value("CCOC(=O)C1[C@@H]2[C@@H](O)[C@@H]3O[C@H](c4ccc(C(C)C)cc4)OC[C@H]3O[C@H]12 (some centres unmarked) [Compound 20b]")
"0/4"
>>> test_value("CCOC(=O)C1[C@@H]2[C@@H](O)[C@@H]3O[C@H](c4cccc(OC)c4)OC[C@H]3O[C@H]12 (some centres unmarked) [Compound 20e]")
"0/4"
>>> test_value("CCOC(=O)C1[C@@H]2[C@@H](OS(=O)(=O)N(C)C)[C@@H]3O[C@H](c4ccc(OC)cc4)OC[C@H]3O[C@H]12 (some centres unmarked) [Compound 17a]")
"0/4"
>>> test_value("CCOC(=O)C1[C@@H]2[C@@H](OS(N)(=O)=O)[C@@H]3OC(C)(C)OC[C@H]3O[C@H]12 (some centres unmarked)")
"1/4"

Please look at the items below and tell me TOX 300 0.5 h (animals toxic/tested) for each one, in order.
1. CCOC(=O)C1[C@H]2O[C@@H]3COC(C)(C)O[C@H]3C(=NO)[C@@H]12 (some centres unmarked)
2. CCOC(=O)C1[C@@H]2[C@@H](O)[C@@H]3O[C@H](c4ccc(C(C)(C)C)cc4)OC[C@H]3O[C@H]12 (some centres unmarked) [Compound 20c]
3. COC(=O)[C@H]1C2O[C@@H]3CO[Si](C(C)(C)C)(C(C)(C)C)O[C@@H]3[C@H](O)[C@@H]21 (some centres unmarked) [Compound 14b]

Out:
["3/4", "0/4", "4/4"]

Please look at the items below and tell me TOX 300 0.5 h (animals toxic/tested) for each one, in order.
1. CCOC(=O)[C@@H]1[C@H]2O[C@@H]3CO[Si](C(C)(C)C)(C(C)(C)C)O[C@H]3[C@H](OS(=O)(=O)N(C)C)[C@H]21
2. CCOC(=O)[C@@H]1[C@H]2O[C@@H]3COC(C)(C)O[C@H]3[C@H](OC)[C@H]21
3. COC(=O)C1[C@@H]2[C@@H](O)[C@@H]3OC(C)(C)OC[C@H]3O[C@H]12 (some centres unmarked)

Out:
["1/4", "0/4", "0/4"]
